# reported IC50; entries follow
Target: human adrenergic-α2C receptor (Homo sapiens)
Construct: expressed in transfected cells; host or cells: CHO cells, stably transfected; membrane preparation
Sequence (P18825 whole entry): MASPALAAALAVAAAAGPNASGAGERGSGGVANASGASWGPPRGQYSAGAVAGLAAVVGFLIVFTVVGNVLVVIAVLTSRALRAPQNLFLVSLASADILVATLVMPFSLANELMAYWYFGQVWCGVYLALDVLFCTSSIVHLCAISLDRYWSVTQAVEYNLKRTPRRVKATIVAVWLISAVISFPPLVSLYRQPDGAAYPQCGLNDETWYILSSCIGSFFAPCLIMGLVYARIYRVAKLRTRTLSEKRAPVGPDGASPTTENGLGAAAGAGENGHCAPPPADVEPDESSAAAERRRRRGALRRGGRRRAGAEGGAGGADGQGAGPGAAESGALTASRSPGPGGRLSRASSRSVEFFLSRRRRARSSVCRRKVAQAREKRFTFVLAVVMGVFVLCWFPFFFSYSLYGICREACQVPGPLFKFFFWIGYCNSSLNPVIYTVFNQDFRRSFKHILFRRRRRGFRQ
Assay: Radioligand binding experiment for hα2C-adrenoceptor ([3H]raulwolscine)
Settings: [3H]raulwolscine 1 nM, 60 minutes at 25° C.; read-out: h-α2C pIC50 (converted)
Write the answer as a number in nM, unit excluded.

Known results for compounds:
{"columns": ["COMPOUND", "IC50 (nM)"],
 "data": [
  ["NC(=O)CCNCc1ccc(-n2ccnc(NC3CCN(Cc4ccc5ccccc5c4)CC3)c2=O)cc1 [1-56]", 25.1],
  ["O=Cc1ccc(-n2ccnc(NC3CCN(Cc4ccc5ccccc5c4)CC3)c2=O)cc1 [5-10]", 63.1],
  ["CCOC(CCn1ccnc(NC2CCN(Cc3ccc4ccccc4c3)CC2)c1=O)OC (centres unmarked) [4-01]", 100],
  ["COc1ccc(Cn2c(-c3ccc(CN4CCC(O)CC4)cc3)c(Cl)nc(NC3CCN(Cc4ccc5ccccc5c4)CC3)c2=O)cc1 [8-11]", 39.8],
  ["O=c1c(NC2CCN(Cc3ccc4ccccc4n3)CC2)nccn1CCOc1ccccc1 [9-15]", 158]
]}

Challenge: Notebook: pull reported IC50 for human adrenergic-α2C receptor (Homo sapiens), entry COc1ccc(Cn2c(-c3cccc(N4CCC(N5CCCC5)CC4)c3)c(Cl)nc(NC3CCN(Cc4ccc5ccccc5c4)CC3)c2=O)cc1 [8-13]
Response given: 126

Challenge: Give recorded IC50 with human adrenergic-α2C receptor (Homo sapiens) for the following compound: O=c1[nH]c(-c2cccc(CN3CCC(F)CC3)c2)c(Cl)nc1NC1CCN(Cc2ccc3ccccc3c2)CC1 [7-06]
Response given: 251

Challenge: Checklist item: IC50 tested on human adrenergic-α2C receptor (Homo sapiens), entry O=c1c(NC2CCN(Cc3ccc4ccccc4c3)CC2)nccn1-c1ccc(CN2CCC(O)CC2)cc1 [2-14] , value?
Response given: 10
